Molecular target: HLA-A*02:01
Assay: IEDB peptide-MHC binding, purified MHC/competitive/fluorescence; filed as Kd, often an IC50 or EC50 that approximates it; bounds were set here for any values at or beyond the usual limits of such assays
Details: source organism: Yersinia pestis KIM10+
recordedEndpoint: Kd (nM)
Number in nM, nothing else.

Query :: Identify measured Kd corresponding to SRWAISHWL
Result :: 76.2

---

Molecular target: HLA-C*12:03
Test: IEDB peptide-MHC binding, purified MHC/direct/fluorescence; filed as Kd, often an IC50 or EC50 that approximates it; bounds were set here for any values at or beyond the usual limits of such assays
Settings: source organism: Bacillus mycoides KBAB4
pKd: −log10 of the molar value.
recordedEndpoint: pKd

Query :: Identify measured pKd corresponding to FAFCRITSF
Result :: ≥ 9.00

---

Molecular target: HLA-A*29:02
Experiment: IEDB peptide-MHC binding, purified MHC/direct/fluorescence; filed as Kd, often an IC50 or EC50 that approximates it; bounds were set here for any values at or beyond the usual limits of such assays
Conditions: source organism: Mammarenavirus lassaense
recordedEndpoint: Kd

Query :: Identify measured Kd corresponding to DIKLIDIAL
Result :: ≥ 20 µM

---

Target: HLA-A*31:01
Assay: IEDB peptide-MHC binding, purified MHC/direct/fluorescence; filed as Kd, often an IC50 or EC50 that approximates it; bounds were set here for any values at or beyond the usual limits of such assays
Settings: source organism: Yersinia pestis Nepal516
recordedEndpoint: Kd

Query :: Identify measured Kd corresponding to ETIFTVLAL
Result :: ≥ 20 µM

---

Molecular target: HLA-A*24:02
Assay: IEDB peptide-MHC binding, purified MHC/direct/fluorescence; filed as Kd, often an IC50 or EC50 that approximates it; bounds were set here for any values at or beyond the usual limits of such assays
Settings: source organism: Influenza A virus (A/Viet Nam/HN/2004(H5N1))
recordedEndpoint: Kd

Query :: Using HLA-A*24:02 as the test system, report measured Kd of VHFRNQVKI .
Result :: ≥ 20 µM

---

Biological target: HLA-A*24:03
Assay: IEDB peptide-MHC binding, purified MHC/direct/fluorescence; filed as Kd, often an IC50 or EC50 that approximates it; bounds were set here for any values at or beyond the usual limits of such assays
Details: source organism: Toxoplasma gondii
recordedEndpoint: Kd (nM)
Number in nM, nothing else.

Query :: Identify measured Kd corresponding to AYMDRKSFK
Result :: 2430

---

Target: HLA-B*51:01
Test: IEDB peptide-MHC binding, purified MHC/competitive/fluorescence; filed as Kd, often an IC50 or EC50 that approximates it; bounds were set here for any values at or beyond the usual limits of such assays
Details: source organism: Bacillus anthracis str. Ames
recordedEndpoint: Kd

Query :: Identify measured Kd corresponding to VILYFMYRK
Result :: ≥ 20 µM

---

Target: HLA-A*03:01
Test: IEDB peptide-MHC binding, purified MHC/direct/fluorescence; filed as Kd, often an IC50 or EC50 that approximates it; bounds were set here for any values at or beyond the usual limits of such assays
Details: source organism: Vibrio vulnificus
recordedEndpoint: pKd
pKd field: float, defined as -log10 of concentration (mol/L).

Query :: Using HLA-A*03:01 as the test system, report measured pKd of KGNVSALVK .
Result :: 5.94

---

Target: HLA-B*07:02
Assay: IEDB peptide-MHC binding, purified MHC/direct/fluorescence; filed as Kd, often an IC50 or EC50 that approximates it; bounds were set here for any values at or beyond the usual limits of such assays
Settings: source organism: Shigella flexneri
recordedEndpoint: Kd

Query :: Identify measured Kd corresponding to VVISKKDTY
Result :: ≥ 20 µM

---

Target: HLA-C*08:02
Assay: IEDB peptide-MHC binding, purified MHC/direct/fluorescence; filed as Kd, often an IC50 or EC50 that approximates it; bounds were set here for any values at or beyond the usual limits of such assays
Conditions: source organism: human gammaherpesvirus 4
recordedEndpoint: Kd (nM)
Number in nM, nothing else.

Query :: Identify measured Kd corresponding to RSDEYVAYY
Result :: 481

---

Target: HLA-B*54:01
Assay: IEDB peptide-MHC binding, purified MHC/competitive/radioactivity; filed as Kd, often an IC50 or EC50 that approximates it; bounds were set here for any values at or beyond the usual limits of such assays
Settings: source organism: SARS coronavirus Tor2
recordedEndpoint: Kd (µM)
Number in µM, nothing else.

Query :: Using HLA-B*54:01 as the test system, report measured Kd of KPTTFMLKY .
Result :: 5.22

---

Target: HLA-A*24:03
Experiment: IEDB peptide-MHC binding, purified MHC/direct/fluorescence; filed as Kd, often an IC50 or EC50 that approximates it; bounds were set here for any values at or beyond the usual limits of such assays
Conditions: source organism: Escherichia coli
recordedEndpoint: Kd

Query :: Identify measured Kd corresponding to DPRDDLSGM
Result :: ≥ 20 µM

---

Biological target: HLA-B*57:01
Assay: IEDB peptide-MHC binding, purified MHC/direct/fluorescence; filed as Kd, often an IC50 or EC50 that approximates it; bounds were set here for any values at or beyond the usual limits of such assays
Conditions: source organism: Yellow fever virus
recordedEndpoint: Kd
Respond with the figure and its unit, in that order.

Query :: Identify measured Kd corresponding to ESWIVDRQW
Result :: 19.5 nM

---

Biological target: HLA-B*57:01
Assay: IEDB peptide-MHC binding, purified MHC/direct/fluorescence; filed as Kd, often an IC50 or EC50 that approximates it; bounds were set here for any values at or beyond the usual limits of such assays
Conditions: source organism: Salmonella enterica subsp. enterica serovar Berta
recordedEndpoint: Kd

Query :: Identify measured Kd corresponding to HQDDGQPRL
Result :: ≥ 20 µM

---

Biological target: HLA-B*15:01
Assay: IEDB peptide-MHC binding, purified MHC/competitive/fluorescence; filed as Kd, often an IC50 or EC50 that approximates it; bounds were set here for any values at or beyond the usual limits of such assays
Details: source organism: Yersinia pestis Antiqua
recordedEndpoint: Kd

Query :: Identify measured Kd corresponding to PLTNQRYRV
Result :: ≥ 20 µM

---

Target: HLA-A*03:01
Experiment: IEDB peptide-MHC binding, purified MHC/direct/fluorescence; filed as Kd, often an IC50 or EC50 that approximates it; bounds were set here for any values at or beyond the usual limits of such assays
Conditions: source organism: Mycobacterium avium 104
recordedEndpoint: Kd

Query :: Identify measured Kd corresponding to VRDVVMPAL
Result :: ≥ 20 µM

---

Target: HLA-B*44:02
Experiment: IEDB peptide-MHC binding, purified MHC/direct/fluorescence; filed as Kd, often an IC50 or EC50 that approximates it; bounds were set here for any values at or beyond the usual limits of such assays
Details: source organism: Mammarenavirus juninense
recordedEndpoint: Kd

Query :: Identify measured Kd corresponding to QLAKRSEIL
Result :: ≥ 20 µM

---

Target: HLA-B*45:01
Test: IEDB peptide-MHC binding, purified MHC/competitive/radioactivity; filed as Kd, often an IC50 or EC50 that approximates it; bounds were set here for any values at or beyond the usual limits of such assays
Details: source organism: Mammarenavirus lassaense
Each entry below lists one item and its recorded Kd value.
Number in nM, nothing else.

constructsequence=SEAQMSIQLI recordedendpoint=Kd units=nM datavalue=997

As a next step, examine the sequence that follows.
Query :: Using HLA-B*45:01 as the test system, report measured Kd of HDFGIPTPS .
Result :: 1460

---

Target: HLA-A*31:01
Assay: IEDB peptide-MHC binding, purified MHC/direct/fluorescence; filed as Kd, often an IC50 or EC50 that approximates it; bounds were set here for any values at or beyond the usual limits of such assays
Conditions: source organism: Camelpox virus M-96
recordedEndpoint: pKd
pKd field: float, defined as -log10 of concentration (mol/L).

constructsequence=ATNDGLIKK datavalue=6.92

As a next step, examine the sequence that follows.
Query :: Using HLA-A*31:01 as the test system, report measured pKd of RVYNNTARY .
Result :: 6.36

---

Target: HLA-A*26:01
Assay: IEDB peptide-MHC binding, purified MHC/competitive/radioactivity; filed as Kd, often an IC50 or EC50 that approximates it; bounds were set here for any values at or beyond the usual limits of such assays
Conditions: source organism: Dengue virus 1 Brazil/97-11/1997
Each entry below lists one item and its recorded Kd value.

constructsequence=EVTAKWLWGF recordedendpoint=Kd datavalue="80.7 nM"
constructsequence=SIILEFFLM recordedendpoint=Kd datavalue="4190 nM"
constructsequence=TVMDVISRR recordedendpoint=Kd datavalue="2340 nM"

Query :: Identify measured Kd corresponding to EPIPMATYGW
Result :: ≥ 69700 nM

---

Biological target: HLA-A*31:01
Experiment: IEDB peptide-MHC binding, purified MHC/direct/fluorescence; filed as Kd, often an IC50 or EC50 that approximates it; bounds were set here for any values at or beyond the usual limits of such assays
Conditions: source organism: Mammarenavirus lassaense
recordedEndpoint: Kd

Query :: Identify measured Kd corresponding to DIKLIDIAL
Result :: ≥ 20 µM
